Give one-hybrid fitness for binding NBS DNA for every item shown.
B1: Caulobacter ParB omega fusion; a variant is named by its letters at X, in order, B8GW30 (parent)
chain: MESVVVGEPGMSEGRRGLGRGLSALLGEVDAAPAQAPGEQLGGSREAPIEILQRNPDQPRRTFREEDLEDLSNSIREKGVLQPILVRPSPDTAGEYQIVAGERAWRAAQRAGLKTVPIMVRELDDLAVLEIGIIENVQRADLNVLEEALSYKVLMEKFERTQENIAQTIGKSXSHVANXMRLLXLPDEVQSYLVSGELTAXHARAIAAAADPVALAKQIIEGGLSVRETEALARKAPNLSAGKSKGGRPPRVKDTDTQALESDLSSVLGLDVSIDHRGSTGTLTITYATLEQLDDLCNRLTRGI

# Variants of: B1
# measurementDescription: one-hybrid fitness for binding NBS DNA (the Noc-binding site; scaled: cognate 1, non-cognate 0); higher = stronger binding
# recordedConditions: with NBS DNA site
The full ranking holds about 81,000 sequences; the median of “one-hybrid fitness for binding NBS DNA” is about -0.1, and the highest 2% start at about 0.36. What follows is part of a selection rich in the highest values, with near analogues and random picks from the rest.

Ask | Look up one-hybrid fitness for binding NBS DNA for this variant: VWCR
Reply | ≤ 0.2

Ask | QQGT , same question.
Reply | 0.475

Ask | Queued: DQYT
Reply | ≤ 0.2

Ask | // repeat for CITN and report
Reply | ≤ 0.2

Ask | Would you kindly repeat that for QQYT ?
Reply | 0.473

Ask | One more variant: QQHM
Reply | ≤ 0.2

Ask | Param item: PANC
Reply | ≤ 0.2

Ask | Likewise for QQGM ?
Reply | 0.202

Ask | Then this variant: TALC
Reply | ≤ 0.2

Ask | Moving on to QQHC
Reply | ≤ 0.2

Ask | What about this variant? EIHG
Reply | ≤ 0.2
